# TEST_NAME: enhancers of NFkB p65 translocation in HUVEC – imaging, IL-1B stimulus, high-content imaging, primary screen (AID 819);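 note: percent activation is computed from the nuclear over cytoplasmic p65 intensity ratio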
# MEASUREMENT_CONTEXT: HUVEC IL-1B NFkB p65 nuclear translocation imaging; at 2 µM
The whole screen tested about 94,000 compounds, of which about 280 (0.3%) were called active.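 Rule for the calls: active = activation above 40%, about the mean plus 3 SD, also judged a hit on visual image review; inconclusive = activation above 40% but not a hit on visual review; inactive = activation not above 40% and no visual hit.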 The list comes from a sample in which actives are over-represented; it also holds close analogues and randomly drawn compounds.
Outcomes: yes for active, no for inactive

1) CS(=O)(=O)N(CC(=O)Nc1ccc(F)cc1F)c1cccc([N+](=O)[O-])c1 = no
2) CC(Sc1nnc(Cc2ccc([N+](=O)[O-])cc2)o1)C(N)=O (stereo not drawn) = no
3) Cc1cc(-c2ccccc2)n2nc(C)c(-c3ccccc3)c2n1 = no
4) CCCC(=O)NC(Nc1ccccc1OC)C(Cl)(Cl)Cl (stereo not drawn) = no
5) Cc1cc(Nc2ccccc2)nc(N)n1 = no
6) CC(C)(CCl)C(=O)Nc1ccc(Sc2ccc(F)cc2)cc1 = no
7) COc1ccc(NC(=O)CCNC(=O)Cn2ccc3ccccc3c2=O)c(OC)c1 = yes
8) O=C1c2ccccc2C(=O)c2c1cccc2N1CCN(Cc2ccccc2)CC1 = no
9) CCCC1NC(=O)NC(C)=C1C(=O)OCC (stereo not drawn) = no
10) Cc1nn(C)cc1/C=C1\CCC/C(=C\c2cn(C)nc2C)C1=O = no
11) COc1ccc(-c2[nH]nc(-c3ccccc3)c2-c2nc3ccccc3[nH]2)cc1 = no
12) O=C(Nc1cc2ccccc2oc1=O)C1CCCCC1 = no
13) O=C1c2ccccc2C(=O)c2c1cccc2N1CCN(CCO)CC1 = no
14) O=C(Cc1ccc(S(=O)(=O)N2CCOCC2)s1)NCCC(c1ccccc1)c1ccccc1 = no
15) O=C(CN1CCSCC1)N/N=C/c1ccc(F)cc1F = no
16) Cc1nn(C)c(Oc2ccccc2)c1[N+](=O)[O-] = no
17) CCOC(=O)C1=C(C)NC(C)=C(C(=O)OCC)C1c1ccccn1 = no
18) CC(=O)NS(=O)(=O)c1ccc(NC(=S)NC(=O)C(C)(C)C)cc1 = no
19) CCCCCCCC(=O)NC(Nc1ccccc1OC)C(Cl)(Cl)Cl (stereo not drawn) = no
20) CCOc1ccc(C(CCc2ccccc2)NC(=O)c2ccc(OC)c(OC)c2)cc1OCC (stereo not drawn) = no
21) Cc1[nH][nH]c(=O)c1C(c1ccc(-c2ccc(Cl)cc2)o1)c1c(C)[nH][nH]c1=O = yes
22) O=C(c1ccc(Cl)cc1)c1cnc(Nc2ccccc2)s1 = no
23) COc1ccc(CCN2C(=O)C3CC=C(C)CC3C2=O)cc1OC (stereo not drawn) = no
